Quick reference: growth of the listed items.
- Tested on: SW-620 colon
- assay info: NCI-60 one-dose screen, 48 h (100 = growth as untreated, 0 = no growth, -100 = all killed)
- condition summary: 10 µM unless noted
- Protocol: Growth inhibition of the SW-620 human tumor cell line is measured as a screen for anti-cancer activity. Cells are grown in 96 well plates and exposed to the test compound for 48 hours. Compounds are tested at a single concentration, which is 10^-5 M for most compounds. The reported endpoint is percent growth (GI% or GIPRCNT), where numbers from 0 - 100% represent growth inhibition, and numbers from -100% - 0 represent cell death. For example, a value of 40 represents 60% growth inhibition. […]
This is part of a sample that, as a whole, favours compounds with a hit. Of some 83,000 tested, about 20% had one in any assay. Activity calls are given as the source filed them. How the source made its calls: active means growth percent below 10; inactive means the rest.

COc1ccc2c(O)c(/C=C3\N=Nc4nc(C)ccc43)oc2c1CC1CCNCC1 ... 38.9% (inactive)
Cc1oc2c(Cc3ccc(NC(=O)c4ccc(Cl)cc4)cc3)ncnc2c1C(=O)NO ... 105% (inactive)
COC1/C=C/OC2(C)Oc3c(C)c(O)c4c(O)c(c(C=NOC(c5ccccc5)c5ccccc5)c(O)c4c3C2=O)NC(=O)/C(C)=C/C=C/C(C)C(O)C(C)C(O)C(C)C(OC(C)=O)C1C (centres undefined) ... 18.3% (inactive)

Could you now consider this next compound?
Problem: Reported growth for "C=C[C@]1(C)C=C2CC[C@@H]3C(C)(C)C(=O)CC[C@@]3(C)[C@@H]2CC1" : what is it?
Solution: 105% (inactive)

====

- Tested on: SR leukemia
- assay info: NCI-60 one-dose screen, 48 h
- condition summary: 10 µM unless noted
- Procedure: Growth inhibition of the SR human tumor cell line is measured as a screen for anti-cancer activity. Cells are grown in 96 well plates and exposed to the test compound for 48 hours. Compounds are tested at a single concentration, which is 10^-5 M for most compounds. The reported endpoint is percent growth (GI% or GIPRCNT), where numbers from 0 - 100% represent growth inhibition, and numbers from -100% - 0 represent cell death. For example, a value of 40 represents 60% growth inhibition. […]
This is part of a sample that, as a whole, favours compounds with a hit. Of some 83,000 tested, about 20% had one in any assay. Active and inactive are the calls of the source. The calls were made as follows: active = growth percent below 10; inactive = the rest.
Write down one outcome, taken from active, inactive

Some solved entries appear below for comparison.
CN1CCN(c2ccc(Nc3ncc(C(N)=O)c(NCCCNC(=O)C4CCC4)n3)cc2)CC1 ... inactive
CON1CCC[C@]2(C)[C@H]3CC[C@@H]4[C@H]5[C@@H](O)C(C)(C)CC[C@]5(CO)CC[C@@]4(C)[C@]3(C)CC[C@H]2C1(C)C ... inactive
COC(=O)c1nc(-c2ccccc2)oc1S(=O)(=O)N(C)CCO ... active
Cc1[nH]c(C(=O)Nc2nc3ccc(NC(=O)CCN)cc3s2)c(Cl)c1Cl ... active
O=C(Oc1ccc(CO[N+](=O)[O-])cc1)c1ccccc1 ... active

Problem: Recorded test outcome, item "Clc1ccc(Nc2nc(Nc3ccc(Cl)cc3)nc(Nc3ccc(-c4cc(-c5cccc(Cl)c5)on4)cc3)n2)cc1"
Solution: active

Problem: Recorded test outcome, item "CC[C@@H]1NC(=O)[C@H]([C@H](O)[C@H](C)C/C=C/c2ccc(CN3C(=O)C(C)=C(C)C3=O)cc2)N(C)C(=O)[C@H](C(C)C)N(C)C(=O)[C@H](CC(C)C)N(C)C(=O)[C@H](CC(C)C)N(C)C(=O)[C@@H](C)NC(=O)[C@H](C)NC(=O)[C@H](CC(C)C)N(C)C(=O)[C@H](C(C)C)NC(=O)[C@H](CC(C)C)N(C)C(=O)CN(C)C1=O"
Solution: inactive

Problem: Recorded test outcome, item "COc1cc(F)c(/C=C/c2cc(/C=C/c3cc(OC)c(OC)cc3F)n(-c3cc(F)cc(F)c3)n2)cc1OC"
Solution: active
